Below: a set of entries, each annotated with reported Condition 2 Conversion (%).
- Format: physicochemical
- Conditions: DI water, 25° C., 0.5 mM; time 30 min

Compound | Condition 2 Conversion (%)
COc1ccc([C@@]23CC/C(=N\NC(=O)NCCc4cccs4)C[C@@H]2N(C)CC3)cc1OC | 0%
COc1ccc([C@@]23CCC(OC(=O)c4ccc(N(C)C)cc4)=C[C@@H]2N(C)CC3)cc1OC | 0%
COc1ccc([C@@]23CCC(=NOc4ccccc4)C[C@@H]2N(C)CC3)cc1OC | 0%
COc1ccc([C@@]23CCC(=NOC(C)(C)C)C[C@@H]2N(C)CC3)cc1OC | 0%
COc1ccc([C@@]23CCC(OC(=O)C(C)(C)C)=C[C@@H]2N(C)CC3)cc1OC | 0%
COc1ccc(C23CCC(=NNC(=O)Nc4ccccc4)C[C@@H]2N(C)CC3)cc1OC (stereo in doubt) | 0.22%
COc1ccc([C@@]23CCC(=NNC(=O)CC(CC(=O)O)CC(C)C)C[C@@H]2N(C)CC3)cc1OC (stereo partly drawn) | 38.53%
COc1ccc([C@@]23CC/C(=N/OC(C)(C)OC)C[C@@H]2N(C)CC3)cc1OC | 0%
COc1ccc([C@@]23CCC(=NNCc4cccc(C)c4)C[C@@H]2N(C)CC3)cc1OC | 11.5%
COc1ccc([C@@]23CCC(=NNC(=O)Nc4cccc(O)c4)C[C@@H]2N(C)CC3)cc1OC | 0%
COc1ccc([C@@]23CCC(=NOCCO)C[C@@H]2N(C)CC3)cc1OC | 0%
COc1ccc([C@@]23CCC(=NOCCC45CC6CC(CC(C6)C4)C5)C[C@@H]2N(C)CC3)cc1OC | 0%
COc1ccc([C@@]23CCC(=NNCc4cccnc4)C[C@@H]2N(C)CC3)cc1OC | 0%
COc1ccc([C@@]23CCC(=NOCc4ccccc4)C[C@@H]2N(C)CC3)cc1OC | 0%
COc1ccc([C@@]23CCC(=NNc4ccc(Cl)cc4)C[C@@H]2N(C)CC3)cc1OC | 0%

----------
- Conditions: 0.5 h, 10 μM
Hi! Just check whether Prodrug (%) remaining, Human Plasma is below 4%. Below gives Y, equal or above gives N.

Compound | Label
COc1ccc([C@@]23CCC(OC(=O)CCN)=C[C@@H]2N(C)CC3)cc1OC [Compound 397] | Y
COc1ccc([C@@]23CCC(OC(=O)c4cccc(C)c4C)=C[C@@H]2N(C)CC3)cc1OC [Compound 373] | N
COCCOCCC(=O)OC1=C[C@@H]2N(C)CC[C@]2(c2ccc(OC)c(OC)c2)CC1 [Compound 405] | N
CCC(CC)C(=O)OC1=C[C@@H]2N(C)CC[C@]2(c2ccc(OC)c(OC)c2)CC1 [Compound 426] | N
CCCC(C)C(=O)OC1=C[C@@H]2N(C)CC[C@]2(c2ccc(OC)c(OC)c2)CC1 (stereo partly shown) [Compound 402] | Y
COCCCCC(=O)OC1=C[C@@H]2N(C)CC[C@]2(c2ccc(OC)c(OC)c2)CC1 [Compound 404] | N
CCCCCCCC(=O)OC1=C[C@@H]2N(C)CC[C@]2(c2ccc(OC)c(OC)c2)CC1 [Compound 395] | Y

----------
Listed next: entries and their corresponding Condition 2 Conversion (%).
- Assay type: physicochemical
- Conditions: DI water, 25° C., 0.5 mM; time 1 min

Chemical string | Condition 2 Conversion (%)
COc1ccc([C@@]23CCC(=NOCc4cccnc4)C[C@@H]2N(C)CC3)cc1OC | 0
COc1ccc([C@@]23CC/C(=N\NC(=O)Nc4ccccc4Cl)C[C@@H]2N(C)CC3)cc1OC | 0
COc1ccc([C@@]23CCC(=NNc4ccc(Cl)cc4)C[C@@H]2N(C)CC3)cc1OC | 0
COc1ccc([C@@]23CC/C(=N\NC(=O)c4ccccc4C(=O)O)C[C@@H]2N(C)CC3)cc1OC | 0
COc1ccc([C@@]23CCC(OC(=O)CC(C)C)=C[C@@H]2N(C)CC3)cc1OC | 0
COc1ccc([C@@]23CCC(=NNC(=O)c4ccc(Cl)cc4)C[C@@H]2N(C)CC3)cc1OC | 35.7
COc1ccc([C@@]23CCC(=NNCc4cccc(C)c4)C[C@@H]2N(C)CC3)cc1OC | 5
